Give measured concentration of solution kept in a solution state after 10 hours at 25° C. for each item. Keep answers brief.
TEST NAME: Solution for forming organic semiconductor layer: kept in solution state in toluene at 25° C.
Type: physicochemical
TEST SETTINGS: heated to 50° C. to dissolve, allowed to cool at room temperature (25° C.)
Give bare numbers, in % by weight.

COMPOUND	READOUT UNIT	VAL
CCCCc1ccc(CCc2cc3ccc4cc5c(ccc6ccsc65)cc4c3s2)cc1	% by weight	1.00
c1ccc(CCc2cc3ccc4c(c3s2)-c2ccc3cc(CCc5ccccc5)sc3c2-4)cc1	% by weight	0.20
c1ccc(CCc2cc3ccc4cc5c(ccc6cc(CCc7ccccc7)sc65)cc4c3s2)cc1	% by weight	0.20
CCCCCCCc1ccc(CCc2cc3ccc4cc5c(ccc6ccsc65)cc4c3s2)cc1	% by weight	0.20

Answer for every listed entry: what is its concentration of solution kept in a solution state after 10 hours at 25° C.? The entries follow.
1. Cc1ccc(CCc2cc3ccc4cc5c(ccc6ccsc65)cc4c3s2)cc1
2. COc1ccc(CCc2cc3ccc4cc5c(ccc6ccsc65)cc4c3s2)cc1
3. Cc1ccc(CCc2cc3ccc4c(c3s2)-c2ccc3ccsc3c2-4)cc1
4. CCCCCCCCc1cc2ccc3cc4c(ccc5cc(CCCCCCCC)sc54)cc3c2s1 [reference compound]

a:
1: 0.50; 2: 0.10; 3: 1.00; 4: 0.20

---

Give measured concentration of solution kept in a solution state after 10 hours at 25° C. for each item. Keep answers brief.
TEST NAME: Solution for forming organic semiconductor layer: kept in solution state in toluene at 25° C.
Type: physicochemical
TEST SETTINGS: heated to 50° C. to dissolve, allowed to cool at room temperature (25° C.)
Experimental: In the air, in a 10 mL sample tube, 0.87 mg of 2,7-di(2-phenylethyl)dithienobiphenylene (Compound 1) synthesized in Example 1 and 434 mg of toluene (FUJIFILM Wako Pure Chemical Corporation, pure grade) was added and the resultant was heated to 50° C. to dissolve, and then allowed to cool at room temperature (25° C.) to thereby prepare a solution for forming an organic semiconductor layer. The solution for forming an organic semiconductor layer was kept in a solution state after 10 hours at 25° C. […]

COMPOUND	VAL
CCCOc1ccc(CCc2cc3ccc4cc5c(ccc6ccsc65)cc4c3s2)cc1	1.00 % by weight
c1ccc(CCc2cc3ccc4c(c3s2)-c2ccc3ccsc3c2-4)cc1	1.00 % by weight
CCCCCCCCc1ccc2c(c1)sc1c3ccc(CCCCCCCC)cc3sc21 [reference compound]	0.20 % by weight

Pending compound:
// c1ccc(CCc2cc3ccc4cc5c(ccc6ccsc65)cc4c3s2)cc1 : concentration of solution kept in a solution state after 10 hours at 25° C. value = 0.40 % by weight
